The entries below are paired with their reported IC50.
system.under.test: hα2A receptor (Homo sapiens, UniProt P08913)
Construct: expressed in transfected cells; host or cells: CHO cells, stably transfected; membrane preparation
Sequence (P08913 whole entry): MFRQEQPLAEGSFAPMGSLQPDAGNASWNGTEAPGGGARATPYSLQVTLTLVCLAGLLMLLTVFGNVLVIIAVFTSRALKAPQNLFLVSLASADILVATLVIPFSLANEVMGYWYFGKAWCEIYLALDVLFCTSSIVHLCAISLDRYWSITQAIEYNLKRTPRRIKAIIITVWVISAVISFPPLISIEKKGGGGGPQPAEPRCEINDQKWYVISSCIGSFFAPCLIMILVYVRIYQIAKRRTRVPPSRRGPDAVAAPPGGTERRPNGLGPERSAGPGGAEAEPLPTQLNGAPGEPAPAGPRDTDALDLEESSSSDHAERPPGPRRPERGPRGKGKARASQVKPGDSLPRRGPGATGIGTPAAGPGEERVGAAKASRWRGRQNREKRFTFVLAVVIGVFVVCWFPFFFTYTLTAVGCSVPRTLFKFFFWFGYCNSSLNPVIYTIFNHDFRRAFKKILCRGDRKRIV
procedure.summary: Radioligand binding experiment for α2A-adrenoceptor ([3H]raulwolscine, CHO cell membranes)
test.parameters: [3H]raulwolscine binding, read-out: h-α2A pIC50 (converted)
Answer as a quantity: numeral, then unit.

Determine from records and report IC50 for CCn1ccnc(NC2CCN(C/C(C)=C/c3ccccc3)CC2)c1=O
63.1 nM

Determine from records and report IC50 for C/C(=C\c1ccccc1)CN1CCN(c2nccn(CCCN3CCCC3=O)c2=O)CC1
2000 nM

Determine from records and report IC50 for C/C(=C\c1ccccc1)CN1CCC(Nc2nccn(CC(=O)N(CCN3CCCC3)Cc3ccccc3)c2=O)CC1
12.6 nM

Determine from records and report IC50 for COCC(=O)NCc1ccc(Cn2ccnc(NC3CCN(C/C(C)=C/c4ccccc4)CC3)c2=O)cc1
158 nM

###

system.under.test: hα2C receptor (Homo sapiens)
Construct: expressed in transfected cells; host or cells: CHO cells, stably transfected; membrane preparation
procedure.summary: Radioligand binding experiment for α2C-adrenoceptor ([3H]raulwolscine, CHO cell membranes)
test.parameters: [3H]raulwolscine binding, read-out: h-α2C pIC50 (converted)
Lab note: anything with IC50 below 40 nM is marked Criterion met; values at 40 nM or higher are marked Criterion not met.

Here are 5 compounds together with their reported answers.
[[record]]
compound = "C/C(=C\\c1ccccc1)CN1CCN(c2nccn(Cc3csc(C)n3)c2=O)CC1"
assigned_category = "Criterion not met"

[[record]]
compound = "C/C(=C\\c1ccccc1)CN1CCC(Nc2nccn(CC(=O)NCc3ccc(F)cc3)c2=O)CC1"
assigned_category = "Criterion met"

[[record]]
compound = "C/C(=C\\c1ccccc1)CN1CCC(Nc2nccn(-c3cnc4ccccc4c3)c2=O)CC1"
assigned_category = "Criterion met"

[[record]]
compound = "C/C(=C\\c1ccccc1)CN1CCC(Nc2nccn(-c3ccc(CNCCN4CCCC4)cc3)c2=O)CC1"
assigned_category = "Criterion met"

[[record]]
compound = "O=c1c(NC2CCN(C/C=C/c3ccccc3)CC2)nccn1Cc1ccc2ccccc2c1"
assigned_category = "Criterion not met"


Consider C/C(=C\c1ccccc1)CN1CCC(Nc2nccn(CC3CCCCO3)c2=O)CC1 (centres unmarked) . Does its IC50 lie strictly below 40 nM?
Criterion met

Consider C/C(=C\c1ccccc1)CN1CCC(Nc2nc(Cl)c(-c3cccc(Br)c3)[nH]c2=O)CC1 . Does its IC50 lie strictly below 40 nM?
Criterion not met

###

system.under.test: hα2C receptor (Homo sapiens, UniProt P18825)
Construct: expressed in transfected cells; host or cells: CHO cells, stably transfected; membrane preparation
Sequence (P18825 whole entry): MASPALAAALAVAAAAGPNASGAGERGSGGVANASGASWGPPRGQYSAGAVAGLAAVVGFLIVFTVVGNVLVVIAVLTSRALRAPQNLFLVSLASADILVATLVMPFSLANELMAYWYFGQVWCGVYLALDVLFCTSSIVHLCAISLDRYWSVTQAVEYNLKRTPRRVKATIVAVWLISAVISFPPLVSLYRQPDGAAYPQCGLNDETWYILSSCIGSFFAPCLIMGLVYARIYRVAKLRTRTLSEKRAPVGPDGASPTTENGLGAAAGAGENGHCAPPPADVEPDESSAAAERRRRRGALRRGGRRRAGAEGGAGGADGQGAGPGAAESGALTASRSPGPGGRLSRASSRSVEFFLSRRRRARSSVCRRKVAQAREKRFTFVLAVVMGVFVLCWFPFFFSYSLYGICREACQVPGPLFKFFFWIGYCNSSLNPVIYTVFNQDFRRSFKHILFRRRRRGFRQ
procedure.summary: Radioligand binding experiment for α2C-adrenoceptor ([3H]raulwolscine, CHO cell membranes)
test.parameters: [3H]raulwolscine binding, read-out: h-α2C pIC50 (converted)
measurement.type: IC50 (nM)
Answer in nM, number only, no unit symbol.

Determine from records and report IC50 for C/C(=C\c1ccccc1)CN1CCC(Nc2nccn(CC(=O)N3CCC(Cc4ccccc4)CC3)c2=O)CC1
5.01

Determine from records and report IC50 for C/C(=C\c1ccccc1)CN1CCC(Nc2nccn(-c3ccc(NC(=O)c4cccc(F)c4)cc3)c2=O)CC1
15.8

Determine from records and report IC50 for C/C(=C\c1ccccc1)CN1CCC(Nc2nccn(CCOc3ccccc3)c2=O)CC1
31.6

###

system.under.test: 5HT-Transporter (Homo sapiens)
Construct: Human platelet membranes (Oceanix Biosciences Corporation, Hanover, Md., USA) were thawed; tissue Oceanix Biosciences Corporation, Hanover, Md., USA; host or cells: human platelet membranes
procedure.summary: Binding experiment for the 5HT-transporter ([3H]paroxetine, human platelet membranes)
test.parameters: [3H]paroxetine 0.5 nM, read-out: h-5HTT pIC50 (converted)
measurement.type: IC50

Previously resolved entries follow.
[[record]]
compound = "C=CCN1CCN(C(=O)Cn2ccnc(NC3CCN(C/C(C)=C/c4ccccc4)CC3)c2=O)CC1 [2-24]"
measurement_type = "IC50"
readout_value = "5010 nM"

[[record]]
compound = "C/C(=C\\c1ccccc1)CN1CCC(Nc2nccn(Cc3ccccc3)c2=O)CC1 [5-8]"
measurement_type = "IC50"
readout_value = "1580 nM"


Determine from records and report IC50 for C/C(=C\c1ccccc1)CN1CCC(Nc2nccn(-c3ccc(N4CCCCC4)cc3)c2=O)CC1 [2-8]
501 nM

Determine from records and report IC50 for COc1ccc(CNC(=O)Cn2ccnc(NC3CCN(C/C(C)=C/c4ccccc4)CC3)c2=O)cc1 [1-64]
1580 nM

###

system.under.test: hα2C receptor (Homo sapiens)
Construct: expressed in transfected cells; host or cells: CHO cells, stably transfected; membrane preparation
procedure.summary: Radioligand binding experiment for α2C-adrenoceptor ([3H]raulwolscine, CHO cell membranes)
test.parameters: [3H]raulwolscine binding, read-out: h-α2C pIC50 (converted)
Lab note: anything with IC50 below 20 nM is marked rule met; values at 20 nM or higher are marked rule not met.

Here are 5 compounds together with their reported answers.
[[record]]
compound = "C/C(=C\\c1ccccc1)CN1CCC(Nc2nccn(Cc3ccc(CN)cc3)c2=O)CC1 [1-7]"
assigned_category = "rule met"

[[record]]
compound = "C/C(=C\\c1ccccc1)CN1CCC(Nc2nccn(Cc3ccc(CNS(=O)(=O)c4ccc(C(F)(F)F)cc4)cc3)c2=O)CC1 [1-163]"
assigned_category = "rule not met"

[[record]]
compound = "C/C(=C\\c1ccccc1)CN1CCC(Nc2nccn(Cc3ccccc3Br)c2=O)CC1 [5-14]"
assigned_category = "rule met"

[[record]]
compound = "C/C(=C\\c1ccccc1)CN1CCC(Nc2nccn(CCCN(Cc3ccccc3)Cc3ccccc3)c2=O)CC1 [1-71]"
assigned_category = "rule met"

[[record]]
compound = "C/C(=C\\c1ccccc1)CN1CCN(c2nccn(CCOc3ccccc3)c2=O)CC1 [10-2]"
assigned_category = "rule not met"


Consider C/C(=C\c1ccccc1)CN1CCC(Nc2nccn(-c3cccc(NC(=O)c4cccc(F)c4)c3)c2=O)CC1 [1-76] . Does its IC50 lie strictly below 20 nM?
rule not met

Consider CCn1ccnc(NC2CCN(C/C(C)=C/c3ccccc3)CC2)c1=O [7-3] . Does its IC50 lie strictly below 20 nM?
rule met

Consider C/C(=C\c1ccccc1)CN1CCC(Nc2nccn(C/C=C/c3ccccc3)c2=O)CC1 [5-28] . Does its IC50 lie strictly below 20 nM?
rule not met

###

The entries below are paired with their reported IC50.
system.under.test: 5HT-Transporter (Homo sapiens, UniProt P31645)
Construct: Human platelet membranes (Oceanix Biosciences Corporation, Hanover, Md., USA) were thawed; tissue Oceanix Biosciences Corporation, Hanover, Md., USA; host or cells: human platelet membranes
Sequence (P31645 whole entry): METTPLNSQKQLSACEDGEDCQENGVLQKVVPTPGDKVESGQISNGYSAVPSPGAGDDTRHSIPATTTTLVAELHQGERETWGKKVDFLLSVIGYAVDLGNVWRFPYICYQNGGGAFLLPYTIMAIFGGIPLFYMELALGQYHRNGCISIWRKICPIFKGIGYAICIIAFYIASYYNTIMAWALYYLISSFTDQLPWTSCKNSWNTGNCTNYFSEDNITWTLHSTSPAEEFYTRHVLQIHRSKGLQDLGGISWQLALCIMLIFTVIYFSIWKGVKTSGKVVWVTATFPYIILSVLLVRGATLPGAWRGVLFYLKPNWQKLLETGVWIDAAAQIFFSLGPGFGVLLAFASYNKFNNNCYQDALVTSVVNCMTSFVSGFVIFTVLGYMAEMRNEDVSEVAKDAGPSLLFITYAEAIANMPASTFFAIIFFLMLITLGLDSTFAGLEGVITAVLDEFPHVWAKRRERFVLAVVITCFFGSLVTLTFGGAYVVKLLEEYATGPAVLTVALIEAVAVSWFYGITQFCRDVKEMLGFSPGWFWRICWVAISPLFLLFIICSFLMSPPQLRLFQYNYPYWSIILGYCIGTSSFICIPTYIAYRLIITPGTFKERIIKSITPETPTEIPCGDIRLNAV
procedure.summary: Binding experiment for the 5HT-transporter ([3H]paroxetine, human platelet membranes)
test.parameters: [3H]paroxetine 0.5 nM, read-out: h-5HTT pIC50 (converted)

Previously resolved entries follow.
[[record]]
compound = "C/C(=C\\c1ccccc1)CN1CCC(Nc2nccn(Cc3ccc4ccccc4n3)c2=O)CC1 [6-17]"
system_under_test = "5HT-Transporter (Homo sapiens, UniProt P31645)"
readout_value = "316 nM"

[[record]]
compound = "C/C(=C\\c1ccccc1)CN1CCC(Nc2nccn(Cc3cccc(Cl)c3)c2=O)CC1 [5-18]"
system_under_test = "5HT-Transporter (Homo sapiens, UniProt P31645)"
readout_value = "631 nM"

[[record]]
compound = "CCCNC(=O)Cn1ccnc(NC2CCN(C/C(C)=C/c3ccccc3)CC2)c1=O [1-10]"
system_under_test = "5HT-Transporter (Homo sapiens, UniProt P31645)"
readout_value = "2000 nM"

[[record]]
compound = "C/C(=C\\c1ccccc1)CN1CCC(Nc2nccn(CC(=O)Nc3ccc(N4CCOCC4)cc3)c2=O)CC1 [1-45]"
system_under_test = "5HT-Transporter (Homo sapiens, UniProt P31645)"
readout_value = "2000 nM"

[[record]]
compound = "C/C(=C\\c1ccccc1)CN1CCC(Nc2nccn(Cc3cccc(F)c3)c2=O)CC1 [5-12]"
system_under_test = "5HT-Transporter (Homo sapiens, UniProt P31645)"
readout_value = "501 nM"

[[record]]
compound = "C/C(=C\\c1ccccc1)CN1CCC(Nc2nccn(CC(=O)c3ccc4c(c3)NC(=O)CO4)c2=O)CC1 [6-15]"
system_under_test = "5HT-Transporter (Homo sapiens, UniProt P31645)"
readout_value = "1000 nM"

[[record]]
compound = "C/C(=C\\c1ccccc1)CN1CCC(Nc2nccn(CCCN(C(=O)Cc3ccccc3)c3ccccc3)c2=O)CC1 [1-88]"
system_under_test = "5HT-Transporter (Homo sapiens, UniProt P31645)"
readout_value = "631 nM"


# context switch: different compound, same IC50
Determine from records and report IC50 for C/C(=C\c1ccccc1)CN1CCC(Nc2nccn(-c3ccc(N4CCN(c5ccccc5)CC4)cc3)c2=O)CC1 [2-28]
794 nM

###

system.under.test: 5HT-Transporter (Homo sapiens)
Construct: Human platelet membranes (Oceanix Biosciences Corporation, Hanover, Md., USA) were thawed; tissue Oceanix Biosciences Corporation, Hanover, Md., USA; host or cells: human platelet membranes
procedure.summary: Binding experiment for the 5HT-transporter ([3H]paroxetine, human platelet membranes)
test.parameters: [3H]paroxetine 0.5 nM, read-out: h-5HTT pIC50 (converted)
The entries below are paired with their reported IC50.
Answer in nM, number only, no unit symbol.

[[record]]
compound = "C/C(=C\\c1ccccc1)CN1CCC(Nc2nccn(CC(=O)N(C)Cc3ccccc3)c2=O)CC1"
readout_value = 631

[[record]]
compound = "C/C(=C\\c1ccccc1)CN1CCC(Nc2nccn(CCCN(C)C(=O)c3ccccc3)c2=O)CC1"
readout_value = 3160

[[record]]
compound = "CCCNC(=O)c1ccc(-n2ccnc(NC3CCN(C/C(C)=C/c4ccccc4)CC3)c2=O)cc1"
readout_value = 398

[[record]]
compound = "C/C(=C\\c1ccccc1)CN1CCC(Nc2nccn(CC(=O)N(C)C3CCCCC3)c2=O)CC1"
readout_value = 1000

[[record]]
compound = "C/C(=C\\c1ccccc1)CN1CCC(Nc2nccn(-c3ccc(C#N)cc3)c2=O)CC1"
readout_value = 1000

[[record]]
compound = "CSCCn1ccnc(N2CCN(C/C(C)=C/c3ccccc3)CC2)c1=O"
readout_value = 6310

[[record]]
compound = "O=c1c(NC2CCN(C/C=C/c3ccccc3)CC2)nccn1CCc1ccccc1"
readout_value = 794

[[record]]
compound = "C/C(=C\\c1ccccc1)CN1CCC(Nc2nccn(CCCN(C)CC(=O)c3ccccc3)c2=O)CC1"
readout_value = 1260

[[record]]
compound = "C/C(=C\\c1ccccc1)CN1CCC(Nc2nccn(CCN3CCOCC3)c2=O)CC1"
readout_value = 7940

[[record]]
compound = "COCCCNC(=O)Cn1ccnc(NC2CCN(C/C(C)=C/c3ccccc3)CC2)c1=O"
readout_value = 2510


Determine from records and report IC50 for C/C(=C\c1ccccc1)CN1CCC(Nc2nccn(CC(=O)N3CCN(C(=O)C4CCCO4)CC3)c2=O)CC1 (centres unmarked)
7940

Determine from records and report IC50 for C/C(=C\c1ccccc1)CN1CCC(Nc2nccn(-c3ccc(NCc4ccccc4)cc3)c2=O)CC1
631

Determine from records and report IC50 for C/C(=C\c1ccccc1)CN1CCC(Nc2nccn(CCCOc3ccccc3)c2=O)CC1
200

Determine from records and report IC50 for COc1cc(CNC(=O)NCc2ccc(Cn3ccnc(NC4CCN(C/C(C)=C/c5ccccc5)CC4)c3=O)cc2)cc(OC)c1
501

Determine from records and report IC50 for C/C(=C\c1ccccc1)CN1CCC(Nc2nccn(Cc3ccc(CNC(=O)c4ccncc4)cc3)c2=O)CC1
398

Determine from records and report IC50 for CCOC(=O)N1CCN(Cc2cccc(-n3ccnc(NC4CCN(C/C(C)=C/c5ccccc5)CC4)c3=O)c2)CC1
1580

These measurements were taken from patent US20090111801A1.
